Each record here notes measured IC50.
- Target Entity: hAC8 (Homo sapiens, UniProt P40145)
- Construct: expressed in transfected cells
- Sequence (P40145 whole entry): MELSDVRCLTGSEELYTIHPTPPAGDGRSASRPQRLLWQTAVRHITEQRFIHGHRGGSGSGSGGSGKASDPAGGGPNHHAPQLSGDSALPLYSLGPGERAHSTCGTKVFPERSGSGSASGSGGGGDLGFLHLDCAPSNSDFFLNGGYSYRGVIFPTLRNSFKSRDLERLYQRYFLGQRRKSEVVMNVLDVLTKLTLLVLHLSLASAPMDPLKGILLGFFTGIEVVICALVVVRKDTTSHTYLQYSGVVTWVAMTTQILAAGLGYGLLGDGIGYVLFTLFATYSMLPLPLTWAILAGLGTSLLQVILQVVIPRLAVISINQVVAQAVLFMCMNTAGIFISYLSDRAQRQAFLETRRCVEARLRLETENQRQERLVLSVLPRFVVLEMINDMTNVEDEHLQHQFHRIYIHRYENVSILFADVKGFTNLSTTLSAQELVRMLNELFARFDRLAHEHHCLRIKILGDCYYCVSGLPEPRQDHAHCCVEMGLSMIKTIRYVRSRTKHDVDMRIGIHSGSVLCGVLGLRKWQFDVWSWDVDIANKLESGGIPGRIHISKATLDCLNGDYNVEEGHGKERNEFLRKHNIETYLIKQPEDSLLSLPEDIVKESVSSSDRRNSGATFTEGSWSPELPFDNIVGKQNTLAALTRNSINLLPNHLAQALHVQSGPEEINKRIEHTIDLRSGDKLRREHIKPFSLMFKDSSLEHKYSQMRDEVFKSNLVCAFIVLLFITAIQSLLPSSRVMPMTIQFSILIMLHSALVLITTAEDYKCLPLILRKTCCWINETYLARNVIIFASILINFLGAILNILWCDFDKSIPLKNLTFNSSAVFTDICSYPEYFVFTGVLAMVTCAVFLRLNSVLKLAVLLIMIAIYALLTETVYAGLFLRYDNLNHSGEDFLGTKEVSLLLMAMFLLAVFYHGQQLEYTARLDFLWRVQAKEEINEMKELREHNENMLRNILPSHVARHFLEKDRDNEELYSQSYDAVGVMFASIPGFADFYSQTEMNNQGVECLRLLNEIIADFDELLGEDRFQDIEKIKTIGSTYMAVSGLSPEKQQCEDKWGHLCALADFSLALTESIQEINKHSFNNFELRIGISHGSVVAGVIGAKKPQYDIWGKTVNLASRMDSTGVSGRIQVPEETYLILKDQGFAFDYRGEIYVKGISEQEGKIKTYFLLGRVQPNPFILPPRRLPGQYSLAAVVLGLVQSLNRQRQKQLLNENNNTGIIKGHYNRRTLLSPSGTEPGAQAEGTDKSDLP
- Assay Notes: Cyclic AMP accumulation in HEK cells stably expressing AC8, stimulated with A23187 (HTRF)
- Type: cell-based
- Run Parameters: HEK-AC8 cells; read-out: HEK-AC8 IC50
State the answer as a number, implicitly in µM.

Solved entries:
- Molecule Smiles: "COc1ccc(C(=O)Nc2nnc(-c3ccc4c(c3)CCCC4)o2)cc1"
  Target Entity: "hAC8 (Homo sapiens, UniProt P40145)"
  Unit Spec: "µM"
  IC50: 46
- Molecule Smiles: "O=C(Nc1nnc(C2CCCCC2)o1)c1ccc(Br)cc1"
  Target Entity: "hAC8 (Homo sapiens, UniProt P40145)"
  Unit Spec: "µM"
  IC50: 25
- Molecule Smiles: "O=C(Nc1nnc(-c2ccc(F)cc2)o1)c1ccc(-c2ccccc2)cc1"
  Target Entity: "hAC8 (Homo sapiens, UniProt P40145)"
  Unit Spec: "µM"
  IC50: 7.5
- Molecule Smiles: "O=C(Nc1nnc(-c2ccc3c(c2)OCCO3)o1)c1cccc(C(F)(F)F)c1"
  Target Entity: "hAC8 (Homo sapiens, UniProt P40145)"
  Unit Spec: "µM"
  IC50: 32

As a next step, examine the molecule that follows.
[in] Please tell me the measured IC50 for O=C(Nc1nnc(-c2ccc3c(c2)OCCO3)o1)c1ccccc1 ; system: hAC8 (Homo sapiens, UniProt P40145).
[out] 102

---

- Target Entity: hAC1 (Homo sapiens)
- Construct: expressed in transfected cells
- Sequence (Q08828 whole entry): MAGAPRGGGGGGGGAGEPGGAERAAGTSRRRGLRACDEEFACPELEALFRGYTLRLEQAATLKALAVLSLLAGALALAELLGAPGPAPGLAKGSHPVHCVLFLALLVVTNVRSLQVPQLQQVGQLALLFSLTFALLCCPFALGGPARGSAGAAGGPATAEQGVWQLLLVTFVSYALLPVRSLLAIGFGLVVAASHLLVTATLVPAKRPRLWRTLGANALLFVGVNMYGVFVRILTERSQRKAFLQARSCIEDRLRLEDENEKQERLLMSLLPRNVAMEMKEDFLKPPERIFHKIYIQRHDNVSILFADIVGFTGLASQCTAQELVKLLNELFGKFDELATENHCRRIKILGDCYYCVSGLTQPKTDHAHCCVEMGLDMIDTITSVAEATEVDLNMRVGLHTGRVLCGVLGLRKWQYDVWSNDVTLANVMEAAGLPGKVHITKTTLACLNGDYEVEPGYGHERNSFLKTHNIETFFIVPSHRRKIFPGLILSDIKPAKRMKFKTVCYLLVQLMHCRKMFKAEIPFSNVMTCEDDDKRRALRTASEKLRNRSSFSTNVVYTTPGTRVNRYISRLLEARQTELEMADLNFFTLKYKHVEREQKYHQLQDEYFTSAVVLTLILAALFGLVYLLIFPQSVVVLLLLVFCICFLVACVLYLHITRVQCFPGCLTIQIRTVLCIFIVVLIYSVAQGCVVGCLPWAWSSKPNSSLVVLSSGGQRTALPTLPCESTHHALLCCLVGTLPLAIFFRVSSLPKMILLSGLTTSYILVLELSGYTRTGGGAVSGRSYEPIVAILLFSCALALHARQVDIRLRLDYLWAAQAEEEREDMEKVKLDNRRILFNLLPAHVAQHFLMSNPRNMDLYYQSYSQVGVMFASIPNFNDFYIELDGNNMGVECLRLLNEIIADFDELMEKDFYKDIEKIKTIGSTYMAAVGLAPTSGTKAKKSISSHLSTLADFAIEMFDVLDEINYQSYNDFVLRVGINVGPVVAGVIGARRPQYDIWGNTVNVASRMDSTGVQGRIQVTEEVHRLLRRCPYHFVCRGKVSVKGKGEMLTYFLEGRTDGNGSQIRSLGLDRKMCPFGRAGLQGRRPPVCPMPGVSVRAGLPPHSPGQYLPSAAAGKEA
- Assay Notes: Cyclic AMP accumulation in HEK cells stably expressing AC1, stimulated with A23187 (HTRF)
- Assay type: cell-based
- Run Parameters: HEK-AC1 cells; read-out: HEK-AC1 IC50
Reported Property: IC50 (µM)
State the answer as a number, implicitly in µM.

Solved entries:
- Molecule Smiles: "Cc1ccc(C(=O)Nc2nnc(C3CCCCC3)o2)cc1"
  Unit Spec: "µM"
  IC50: 15.8
- Molecule Smiles: "Cc1ccc(C(=O)Nc2nnc(C3CCCCC3)o2)cc1C"
  Unit Spec: "µM"
  IC50: 8.1
- Molecule Smiles: "O=C(Nc1nnc(-c2ccc(F)cc2)o1)c1ccc(Cl)cc1"
  Unit Spec: "µM"
  IC50: 8.9

As a next step, examine the molecule that follows.
[in] Consider the molecule O=C(Nc1nnc(-c2ccc(F)cc2)o1)c1ccc(-c2ccccc2)cc1 and give its recorded IC50.
[out] 2.8

---

Each record here notes measured hAC1 % Inhib..
- Target Entity: hAC1 (Homo sapiens)
- Construct: expressed in transfected cells
- Assay Notes: Cyclic AMP accumulation in HEK cells stably expressing AC1, stimulated with A23187 (HTRF)
- Type: cell-based
- Run Parameters: stable HEK cell line, A23187-stimulated cAMP accumulation, n ≥ 3
State the answer as a number, implicitly in %.

- Compound: "CC1CC(C)CN(S(=O)(=O)c2ccc(C(=O)Nc3nnc(-c4cccs4)o3)cc2)C1 (stereo not shown)"
  hAC1 % Inhib. / %: 99
- Compound: "CCc1cc(=O)[nH]c(-n2nc(C)cc2NC(=O)c2ccccc2F)n1"
  hAC1 % Inhib. / %: 99
- Compound: "CCc1c(C)nc(-n2nc(C)cc2NC(=O)c2ccco2)[nH]c1=O"
  hAC1 % Inhib. / %: 100
- Compound: "CSc1cccc(C(=O)Nc2nnc(C3CCCCC3)o2)c1"
  hAC1 % Inhib. / %: 99
- Compound: "CSc1ccccc1C(=O)Nc1cc(C)nn1-c1nc2c(c(=O)[nH]1)CCC2"
  hAC1 % Inhib. / %: 99

[in] Please tell me the measured hAC1 % Inhib. for O=C(Nc1nnc(-c2ccc3c(c2)OCCO3)o1)c1ccc(Br)cc1 ; system: hAC1 (Homo sapiens).
[out] 101

[in] Please tell me the measured hAC1 % Inhib. for O=C(Nc1nnc(-c2ccc3c(c2)CCCC3)o1)c1ccccc1 ; system: hAC1 (Homo sapiens).
[out] 101
